TARGET OR SYSTEM: Ephrin type-B receptor 4 (Homo sapiens)
Sequence (P54760 whole entry): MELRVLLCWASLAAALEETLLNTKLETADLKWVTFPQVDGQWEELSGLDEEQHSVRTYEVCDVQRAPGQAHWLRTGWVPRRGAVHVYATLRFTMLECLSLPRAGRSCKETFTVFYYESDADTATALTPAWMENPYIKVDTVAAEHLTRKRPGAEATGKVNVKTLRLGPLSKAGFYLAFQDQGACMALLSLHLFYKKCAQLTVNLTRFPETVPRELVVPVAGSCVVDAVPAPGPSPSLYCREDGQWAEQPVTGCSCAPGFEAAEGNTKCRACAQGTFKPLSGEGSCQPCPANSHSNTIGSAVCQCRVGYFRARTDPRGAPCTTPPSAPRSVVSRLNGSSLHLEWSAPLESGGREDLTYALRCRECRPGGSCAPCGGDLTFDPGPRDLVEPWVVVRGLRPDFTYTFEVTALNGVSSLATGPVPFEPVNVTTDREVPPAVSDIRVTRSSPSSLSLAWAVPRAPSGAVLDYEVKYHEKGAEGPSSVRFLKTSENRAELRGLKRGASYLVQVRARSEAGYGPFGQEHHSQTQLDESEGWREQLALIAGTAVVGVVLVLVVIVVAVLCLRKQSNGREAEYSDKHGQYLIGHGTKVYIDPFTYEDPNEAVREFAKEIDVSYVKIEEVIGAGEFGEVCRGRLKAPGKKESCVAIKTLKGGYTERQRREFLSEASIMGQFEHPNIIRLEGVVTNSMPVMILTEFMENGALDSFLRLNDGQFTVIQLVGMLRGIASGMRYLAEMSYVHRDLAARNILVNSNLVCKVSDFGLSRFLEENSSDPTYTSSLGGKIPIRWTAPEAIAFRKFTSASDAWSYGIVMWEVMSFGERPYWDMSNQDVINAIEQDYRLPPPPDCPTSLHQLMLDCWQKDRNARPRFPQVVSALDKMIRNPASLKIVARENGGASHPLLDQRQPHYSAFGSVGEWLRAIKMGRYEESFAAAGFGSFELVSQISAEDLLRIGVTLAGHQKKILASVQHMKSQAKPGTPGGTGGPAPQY
VALUE TYPE: Ki (nM)

[[record]]
smi = "Cc1cc(-c2c(Cl)cccc2Cl)cc2nnc(Nc3ccc(OCC[N+]4([O-])CCCC4)cc3)nc12"
unit_abbrev = "nM"
quantitative_result = 7.27

